- method-description: Efflux ratio in dog MDCK cells
- Assay type: ADME, cell-based, Canis lupus familiaris
So I've got a bunch of compounds here, and I need their Ratio values.
Give bare numbers.

Known Ratio results, listed for orientation:
molecular_string=C=CCOc1ccccc1CN(CC(=O)N1CCC(CC(=O)NC2CC2)CC1)Cc1ccccc1 reported=66
molecular_string=CCOc1ccccc1C(=O)N1CCN(C2CCCC2)C[C@@H]1C(=O)NC[C@H]1CCCCO1 reported=29

# input for lookup
Return reported Ratio; argument: C=CCOc1ccccc1CN(CC(=O)N1CCC(CC(=O)NC2CC2)CC1)C1CCCC1
4
